What PAM type was measured for each of the following?
Target: human alpha 7-wt nAChR (Homo sapiens)
Construct: expressed in transfected cells
Assay: Patch-clamp current recording (whole-cell voltage-clamp, GH4C1 cells)
Assay type: cell-based
Parameters: key: Type 0 compounds minimally change the effect size of the current elicited by 1 mM choline.; Type 1 compounds enhance the effect size of the current elicited by 1 mM choline but minimally alter the kinetics of the receptor.; Type 2 compounds enhance the effect size of the current elicited by 1 mM choline while reducing the rate and/or the extent of desensitization.; Type 3 compounds enhance the effect size of the current elicited by 1 mM choline. When tested at higher concentrations up to 10 µM they completely inhibit desensitization; Type 4 compounds allow for an initial desensitization of the receptor followed by a re-opening of the receptor during agonist application
Conditions: current elicited by 1 mM choline

# map each molecule to its PAM type
1. Cc1cc(-c2c(F)cc(N3CCO[C@@H](C(F)(F)F)C3)cc2CNC(=O)c2cc(C)on2)cc(C)n1
2. Cc1cc(-c2c(F)cc(N3CCO[C@H](C(F)(F)F)C3)cc2CNC(=O)c2cc(C)on2)cc(C)n1
3. Cc1cc(-c2c(F)cc(N3CCOC(C)C3)cc2CNC(=O)CC2CC2)cc(C)n1 (stereo not drawn)

*A*
1. 2
2. 1
3. 3

* * *

Target: human alpha 7-wt nAChR (Homo sapiens, UniProt P36544)
Construct: expressed in transfected cells
Sequence (P36544 23-502): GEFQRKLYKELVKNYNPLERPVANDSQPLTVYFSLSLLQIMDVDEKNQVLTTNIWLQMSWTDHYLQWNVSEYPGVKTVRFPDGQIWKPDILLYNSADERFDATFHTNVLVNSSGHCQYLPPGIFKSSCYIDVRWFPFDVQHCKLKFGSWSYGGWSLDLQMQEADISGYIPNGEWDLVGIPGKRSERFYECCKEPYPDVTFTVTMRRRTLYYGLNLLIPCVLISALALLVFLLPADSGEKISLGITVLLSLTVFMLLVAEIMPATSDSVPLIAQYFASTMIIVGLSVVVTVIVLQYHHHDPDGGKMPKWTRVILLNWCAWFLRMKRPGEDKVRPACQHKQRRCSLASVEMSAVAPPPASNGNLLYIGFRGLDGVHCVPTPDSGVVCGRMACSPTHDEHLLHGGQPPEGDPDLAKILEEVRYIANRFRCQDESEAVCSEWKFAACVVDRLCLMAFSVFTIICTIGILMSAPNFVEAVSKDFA
Test: Patch-clamp current recording (whole-cell voltage-clamp, GH4C1 cells)
Type: cell-based
Parameters: key: Type 0 compounds minimally change the effect size of the current elicited by 1 mM choline.; Type 1 compounds enhance the effect size of the current elicited by 1 mM choline but minimally alter the kinetics of the receptor.; Type 2 compounds enhance the effect size of the current elicited by 1 mM choline while reducing the rate and/or the extent of desensitization.; Type 3 compounds enhance the effect size of the current elicited by 1 mM choline. When tested at higher concentrations up to 10 µM they completely inhibit desensitization; Type 4 compounds allow for an initial desensitization of the receptor followed by a re-opening of the receptor during agonist application
Details: current elicited by 1 mM choline
readout: PAM type

*Q* Which PAM type value belongs to Cc1cc(-c2ccc(N3CC4CCC(C3)O4)cc2CNC(=O)C2CC2)cc(C)n1 [Compound 131] ?
*A* 2

*Q* Also check Cc1cc(-c2c(F)cc(N3C[C@@H](C)O[C@@H](C)C3)cc2CNC(=O)C2CC2)ccn1 [Compound 88]
*A* 2

Now examine the next entry.
*Q* Can you look up the measured PAM type of Cc1cc(-c2c(Cl)cc(N3C[C@@H](C)O[C@@H](C)C3)cc2CNC(=O)CC2CC2)cc(C)n1 [Compound 119] for me?
*A* 2

* * *

Target: human alpha 7-wt nAChR (Homo sapiens, UniProt P36544)
Construct: expressed in transfected cells
Assay: Ca2+ flux imaging (FDSS) (protocol B)
Format: cell-based
Settings: Ca2+ assay as described in D.1; read-out: pEC50 (converted)
Field: label. Allowed values: yes (1) (EC50 < 100 nM) or no (0) (EC50 >= 100 nM).

Worked examples follow.
*Q* Consider the compound Cc1cc(-c2ccc(N3CCOCC3)cc2CNC(=O)c2conc2C)ccn1 [Compound 143] . Is its EC50 strictly less than 100 nM?
*A* no (0)

*Q* Also check Cc1cc(-c2ccc(N3CCCC(C(F)(F)F)C3)cc2CNC(=O)CC2CC2)cc(C)n1 (stereo not drawn) [Compound 35]
*A* yes (1)

*Q* Ok, now Cc1cc(-c2c(F)cc(N3C[C@@H](C)O[C@@H](C)C3)cc2CNC(=O)C(C)C)cc(C)n1 [Compound 78]
*A* yes (1)

---
*Q* Lab log: compare recorded EC50 with 100 nM; is it strictly lower for Cc1cc(-c2c(F)cc(N3CCOC(C)C3)cc2CNC(=O)CC2CCC2)cc(C)n1 (stereo not drawn) [Compound 118] ?
*A* yes (1)

*Q* Similarly, Cc1cc(-c2c(F)cc(N3C[C@@H](C)O[C@@H](C)C3)cc2CNC(=O)C2CCC2)cc(C)n1 [Compound 85] ?
*A* yes (1)

*Q* Would you kindly repeat that for Cc1cc(-c2ccc(N3CC4CCC(C3)O4)cc2CNC(=O)C(C)C)cc(C)n1 [Compound 129] ?
*A* no (0)

*Q* Could you do the same for Cc1cc(-c2c(F)cc(N3C[C@@H](C)O[C@@H](C)C3)cc2CNC(=O)C2CCOCC2)cc(C)n1 [Compound 86] , please?
*A* no (0)

*Q* Repeat with Cc1cc(-c2ccc(N3C[C@H](C)C[C@H](C)C3)cc2CNC(=O)c2cc(C)on2)cc(C)n1 [Compound 18]
*A* no (0)

*Q* Would you kindly repeat that for Cc1cc(-c2ccc(N3C[C@H](C(F)(F)F)C[C@H](C(F)(F)F)C3)cc2CNC(=O)c2conc2C)cc(C)n1 [Compound 19] ?
*A* yes (1)
